assay: MTT assay, cytotoxicity; format: cell-based, human; conditions: human, HaCaT keratinocytes, 24 h incubation at 37 °C, 0.5–500 μg/mL, six replicates per concentration, repeated at least twice
Where a SMILES comes first, the peptide text is derived from it. The star is where a group is joined. βGlcNAc = CC(=O)N[C@@H]1[C@@H](O)[C@H](O)[C@@H](CO)O[C@H]1*; Stearoyl = CCCCCCCCCCCCCCCCCC(=O)*; Palmitoyl = CCCCCCCCCCCCCCCC(=O)*; Myristoyl = CCCCCCCCCCCCCC(=O)*
value_kind: IC50 at 24 h (µg/mL)
Field format: number, assumed µg/mL, no unit text.

**Q:** Tell me measured IC50 at 24 h for CCCCCCCCCCCCCC(=O)N[C@@H](CCCNC(=N)N)C(=O)N[C@@H](CCCNC(=N)N)C(=O)N[C@@H](CO)C(N)=O [Peptide 3, C14-RRS-NH2] (Myristoyl-Arg-Arg-Ser-NH2) please.
**A:** 14.3

**Q:** Tell me measured IC50 at 24 h for CCCCCCCCCCCCCC(=O)N[C@@H](CO[C@@H]1O[C@H](CO)[C@@H](O)[C@H](O)[C@H]1NC(C)=O)C(=O)N[C@@H](CCCNC(=N)N)C(=O)N[C@@H](CCCNC(=N)N)C(N)=O [Peptide 10, C14-S(GlcNAc)RR-NH2] (Myristoyl-Ser(βGlcNAc)-Arg-Arg-NH2) please.
**A:** 32.1

Continuing:
**Q:** Tell me measured IC50 at 24 h for CCCCCCCCCCCCCC(=O)N[C@@H](CCCNC(=N)N)C(=O)N[C@@H](CO)C(=O)N[C@@H](CCCNC(=N)N)C(N)=O [Peptide 2, C14-RSR-NH2] (Myristoyl-Arg-Ser-Arg-NH2) please.
**A:** 15

**Q:** Tell me measured IC50 at 24 h for CCCCCCCCCCCCCC(=O)N[C@@H](CCCNC(=N)N)C(=O)N[C@@H](CCCNC(=N)N)C(=O)N[C@@H](CO[C@@H]1O[C@H](CO)[C@@H](O)[C@H](O)[C@H]1NC(C)=O)C(N)=O [Peptide 12, C14-RRS(GlcNAc)-NH2] (Myristoyl-Arg-Arg-Ser(βGlcNAc)-NH2) please.
**A:** 20.5

**Q:** Tell me measured IC50 at 24 h for CCCCCCCCCCCCCCCCCC(=O)N[C@@H](CCCNC(=N)N)C(=O)N[C@@H](CCCNC(=N)N)C(=O)N[C@@H](CO[C@@H]1O[C@H](CO)[C@@H](O)[C@H](O)[C@H]1NC(C)=O)C(N)=O [Peptide 18, C18-RRS(GlcNAc)-NH2] (Stearoyl-Arg-Arg-Ser(βGlcNAc)-NH2) please.
**A:** 13.8

**Q:** Tell me measured IC50 at 24 h for CCCCCCCCCCCCCCCC(=O)N[C@@H](CCCNC(=N)N)C(=O)N[C@@H](CCCNC(=N)N)C(=O)N[C@@H](CO)C(N)=O [Peptide 6, C16-RRS-NH2] (Palmitoyl-Arg-Arg-Ser-NH2) please.
**A:** 7.84

**Q:** Tell me measured IC50 at 24 h for CCCCCCCCCCCCCCCCCC(=O)N[C@@H](CO)C(=O)N[C@@H](CCCNC(=N)N)C(=O)N[C@@H](CCCNC(=N)N)C(N)=O [Peptide 7, C18-SRR-NH2] (Stearoyl-Ser-Arg-Arg-NH2) please.
**A:** 8.28

**Q:** Tell me measured IC50 at 24 h for CCCCCCCCCCCCCCCCCC(=O)N[C@@H](CO[C@@H]1O[C@H](CO)[C@@H](O)[C@H](O)[C@H]1NC(C)=O)C(=O)N[C@@H](CCCNC(=N)N)C(=O)N[C@@H](CCCNC(=N)N)C(N)=O [Peptide 16, C18-S(GlcNAc)RR-NH2] (Stearoyl-Ser(βGlcNAc)-Arg-Arg-NH2) please.
**A:** 10.1

---

Reported MBEC values for the following compounds.
test system: C. glabrata biofilm; type: cell-based, Candida glabrata; conditions: 24 h
Where a SMILES comes first, the peptide text is derived from it. The star is where a group is joined. βGlcNAc = CC(=O)N[C@@H]1[C@@H](O)[C@H](O)[C@@H](CO)O[C@H]1*; Stearoyl = CCCCCCCCCCCCCCCCCC(=O)*
Field format: number, assumed µg/mL, no unit text.

**Q:** Tell me measured MBEC for CCCCCCCCCCCCCCCCCC(=O)N[C@@H](CCCNC(=N)N)C(=O)N[C@@H](CCCNC(=N)N)C(=O)N[C@@H](CO[C@@H]1O[C@H](CO)[C@@H](O)[C@H](O)[C@H]1NC(C)=O)C(N)=O [Peptide 18, C18-RRS(GlcNAc)-NH2] (Stearoyl-Arg-Arg-Ser(βGlcNAc)-NH2) please.
**A:** 128

**Q:** Tell me measured MBEC for CCCCCCCCCCCCCCCCCC(=O)N[C@@H](CCCNC(=N)N)C(=O)N[C@@H](CCCNC(=N)N)C(=O)N[C@@H](CO)C(N)=O [Peptide 9, C18-RRS-NH2] (Stearoyl-Arg-Arg-Ser-NH2) please.
**A:** 128

**Q:** Tell me measured MBEC for CCCCCCCCCCCCCCCCCC(=O)N[C@@H](CO)C(=O)N[C@@H](CCCNC(=N)N)C(=O)N[C@@H](CCCNC(=N)N)C(N)=O [Peptide 7, C18-SRR-NH2] (Stearoyl-Ser-Arg-Arg-NH2) please.
**A:** 128

Continuing:
**Q:** Tell me measured MBEC for CCCCCCCCCCCCCCCCCC(=O)N[C@@H](CCCNC(=N)N)C(=O)N[C@@H](CO[C@@H]1O[C@H](CO)[C@@H](O)[C@H](O)[C@H]1NC(C)=O)C(=O)N[C@@H](CCCNC(=N)N)C(N)=O [Peptide 17, C18-RS(GlcNAc)R-NH2] (Stearoyl-Arg-Ser(βGlcNAc)-Arg-NH2) please.
**A:** 64

**Q:** Tell me measured MBEC for CCCCCCCCCCCCCCCCCC(=O)N[C@@H](CCCNC(=N)N)C(=O)N[C@@H](CO)C(=O)N[C@@H](CCCNC(=N)N)C(N)=O [Peptide 8, C18-RSR-NH2] (Stearoyl-Arg-Ser-Arg-NH2) please.
**A:** 128

**Q:** Tell me measured MBEC for CCCCCCCCCCCCCCCCCC(=O)N[C@@H](CO[C@@H]1O[C@H](CO)[C@@H](O)[C@H](O)[C@H]1NC(C)=O)C(=O)N[C@@H](CCCNC(=N)N)C(=O)N[C@@H](CCCNC(=N)N)C(N)=O [Peptide 16, C18-S(GlcNAc)RR-NH2] (Stearoyl-Ser(βGlcNAc)-Arg-Arg-NH2) please.
**A:** 64

---

Reported MBEC values for the following compounds.
test system: P. aeruginosa biofilm; type: cell-based, Pseudomonas aeruginosa; settings: 24 h
Where a SMILES comes first, the peptide text is derived from it. The star is where a group is joined. βGlcNAc = CC(=O)N[C@@H]1[C@@H](O)[C@H](O)[C@@H](CO)O[C@H]1*; Stearoyl = CCCCCCCCCCCCCCCCCC(=O)*
Field format: number, assumed µg/mL, no unit text.

**Q:** Tell me measured MBEC for CCCCCCCCCCCCCCCCCC(=O)N[C@@H](CO)C(=O)N[C@@H](CCCNC(=N)N)C(=O)N[C@@H](CCCNC(=N)N)C(N)=O [Peptide 7, C18-SRR-NH2] (Stearoyl-Ser-Arg-Arg-NH2) please.
**A:** 512

**Q:** Tell me measured MBEC for CCCCCCCCCCCCCCCCCC(=O)N[C@@H](CO[C@@H]1O[C@H](CO)[C@@H](O)[C@H](O)[C@H]1NC(C)=O)C(=O)N[C@@H](CCCNC(=N)N)C(=O)N[C@@H](CCCNC(=N)N)C(N)=O [Peptide 16, C18-S(GlcNAc)RR-NH2] (Stearoyl-Ser(βGlcNAc)-Arg-Arg-NH2) please.
**A:** 512

Please turn your attention to the following entry.
**Q:** Tell me measured MBEC for CCCCCCCCCCCCCCCCCC(=O)N[C@@H](CCCNC(=N)N)C(=O)N[C@@H](CCCNC(=N)N)C(=O)N[C@@H](CO[C@@H]1O[C@H](CO)[C@@H](O)[C@H](O)[C@H]1NC(C)=O)C(N)=O [Peptide 18, C18-RRS(GlcNAc)-NH2] (Stearoyl-Arg-Arg-Ser(βGlcNAc)-NH2) please.
**A:** 512

---

assay: Determination of peptide hydrophobicity with RP-HPLC (adjusted retention time); assay type: physicochemical; details: RP-HPLC as measure of hydrophobicity; Waters X-Bridge Shield RP-18 3.0 × 100 mm, 3.5 μm; linear 20–80% acetonitrile in water over 30 min, 0.1% TFA; 0.5 mL/min; 25.0 °C; peptide 1 g/L in water (0.1% TFA); UV 214 nm; triplicate
Where a SMILES comes first, the peptide text is derived from it. The star is where a group is joined. βGlcNAc = CC(=O)N[C@@H]1[C@@H](O)[C@H](O)[C@@H](CO)O[C@H]1*; Stearoyl = CCCCCCCCCCCCCCCCCC(=O)*; Palmitoyl = CCCCCCCCCCCCCCCC(=O)*; Myristoyl = CCCCCCCCCCCCCC(=O)*
Reported Adjusted Retention Time values for the following compounds.
Field format: number, assumed min, no unit text.

Previously resolved entries follow.
**Q:** Tell me measured Adjusted Retention Time for CCCCCCCCCCCCCC(=O)N[C@@H](CCCNC(=N)N)C(=O)N[C@@H](CCCNC(=N)N)C(=O)N[C@@H](CO[C@@H]1O[C@H](CO)[C@@H](O)[C@H](O)[C@H]1NC(C)=O)C(N)=O [Peptide 12, C14-RRS(GlcNAc)-NH2] (Myristoyl-Arg-Arg-Ser(βGlcNAc)-NH2) please.
**A:** 15.01

**Q:** Tell me measured Adjusted Retention Time for CCCCCCCCCCCCCC(=O)N[C@@H](CO[C@@H]1O[C@H](CO)[C@@H](O)[C@H](O)[C@H]1NC(C)=O)C(=O)N[C@@H](CCCNC(=N)N)C(=O)N[C@@H](CCCNC(=N)N)C(N)=O [Peptide 10, C14-S(GlcNAc)RR-NH2] (Myristoyl-Ser(βGlcNAc)-Arg-Arg-NH2) please.
**A:** 14.47

**Q:** Tell me measured Adjusted Retention Time for CCCCCCCCCCCCCCCCCC(=O)N[C@@H](CCCNC(=N)N)C(=O)N[C@@H](CCCNC(=N)N)C(=O)N[C@@H](CO[C@@H]1O[C@H](CO)[C@@H](O)[C@H](O)[C@H]1NC(C)=O)C(N)=O [Peptide 18, C18-RRS(GlcNAc)-NH2] (Stearoyl-Arg-Arg-Ser(βGlcNAc)-NH2) please.
**A:** 22.67

Continuing:
**Q:** Tell me measured Adjusted Retention Time for CCCCCCCCCCCCCC(=O)N[C@@H](CCCNC(=N)N)C(=O)N[C@@H](CO)C(=O)N[C@@H](CCCNC(=N)N)C(N)=O [Peptide 2, C14-RSR-NH2] (Myristoyl-Arg-Ser-Arg-NH2) please.
**A:** 15.96

**Q:** Tell me measured Adjusted Retention Time for CCCCCCCCCCCCCC(=O)N[C@@H](CCCNC(=N)N)C(=O)N[C@@H](CCCNC(=N)N)C(=O)N[C@@H](CO)C(N)=O [Peptide 3, C14-RRS-NH2] (Myristoyl-Arg-Arg-Ser-NH2) please.
**A:** 15.91

**Q:** Tell me measured Adjusted Retention Time for CCCCCCCCCCCCCCCC(=O)N[C@@H](CCCNC(=N)N)C(=O)N[C@@H](CO[C@@H]1O[C@H](CO)[C@@H](O)[C@H](O)[C@H]1NC(C)=O)C(=O)N[C@@H](CCCNC(=N)N)C(N)=O [Peptide 14, C16-RS(GlcNAc)R-NH2] (Palmitoyl-Arg-Ser(βGlcNAc)-Arg-NH2) please.
**A:** 18.63

**Q:** Tell me measured Adjusted Retention Time for CCCCCCCCCCCCCCCC(=O)N[C@@H](CO)C(=O)N[C@@H](CCCNC(=N)N)C(=O)N[C@@H](CCCNC(=N)N)C(N)=O [Peptide 4, C16-SRR-NH2] (Palmitoyl-Ser-Arg-Arg-NH2) please.
**A:** 20.55

**Q:** Tell me measured Adjusted Retention Time for CCCCCCCCCCCCCC(=O)N[C@@H](CO)C(=O)N[C@@H](CCCNC(=N)N)C(=O)N[C@@H](CCCNC(=N)N)C(N)=O [Peptide 1, C14-SRR-NH2] (Myristoyl-Ser-Arg-Arg-NH2) please.
**A:** 16.55

**Q:** Tell me measured Adjusted Retention Time for CCCCCCCCCCCCCCCC(=O)N[C@@H](CCCNC(=N)N)C(=O)N[C@@H](CCCNC(=N)N)C(=O)N[C@@H](CO)C(N)=O [Peptide 6, C16-RRS-NH2] (Palmitoyl-Arg-Arg-Ser-NH2) please.
**A:** 19.89

**Q:** Tell me measured Adjusted Retention Time for CCCCCCCCCCCCCCCCCC(=O)N[C@@H](CCCNC(=N)N)C(=O)N[C@@H](CO[C@@H]1O[C@H](CO)[C@@H](O)[C@H](O)[C@H]1NC(C)=O)C(=O)N[C@@H](CCCNC(=N)N)C(N)=O [Peptide 17, C18-RS(GlcNAc)R-NH2] (Stearoyl-Arg-Ser(βGlcNAc)-Arg-NH2) please.
**A:** 22.50

The measurements presented in this section are drawn from paper PMC9855884.
